# tested-system: human serum BChE (Homo sapiens (Human), UniProt P06276)
# Sequence (P06276 29-602): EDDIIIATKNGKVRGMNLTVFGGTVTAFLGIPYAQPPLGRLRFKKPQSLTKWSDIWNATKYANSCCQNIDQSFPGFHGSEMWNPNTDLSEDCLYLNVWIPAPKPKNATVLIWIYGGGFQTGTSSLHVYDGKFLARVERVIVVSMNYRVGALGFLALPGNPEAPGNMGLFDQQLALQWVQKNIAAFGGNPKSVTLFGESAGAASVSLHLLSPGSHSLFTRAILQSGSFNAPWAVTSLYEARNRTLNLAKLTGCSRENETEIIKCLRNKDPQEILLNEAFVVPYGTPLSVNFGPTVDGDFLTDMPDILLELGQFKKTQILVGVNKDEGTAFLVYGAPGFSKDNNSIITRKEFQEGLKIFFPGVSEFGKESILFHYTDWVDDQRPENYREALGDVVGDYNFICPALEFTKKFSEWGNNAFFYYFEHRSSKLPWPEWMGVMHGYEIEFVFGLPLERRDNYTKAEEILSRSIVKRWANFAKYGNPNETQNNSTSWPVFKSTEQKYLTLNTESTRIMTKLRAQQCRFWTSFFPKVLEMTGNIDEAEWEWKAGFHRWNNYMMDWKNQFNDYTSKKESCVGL
# experimental-protocol: BChE inhibition assay (Ellman)
# Format: biochemical
# Method: BChE inhibitory activity determinations were carried out similarly by the method of Ellman et al., using 0.02 unit/mL of human serum BChE and 300 μM butyrylthiocholine, instead of AChE and acetylthiocholine, in a final volume of 300 μL. Results are expressed as mean±S.E.M. of at least 4 experiments performed in duplicate. DTNB, acetylthiocholine, butyrylthiocholine, and enzymes were purchased from Sigma.
Where a name gives a salt, the structure may show the parent alone.
measured-metric: IC50 (nM)
Write it as a number; the unit nM goes unstated.

**Q:** Any idea what IC50 came out for CC1=CC2Cc3nc4cc(Cl)ccc4c(NCCCCCCCCCCCNC(=O)c4cc(O)c5c(c4)C(=O)c4cccc(O)c4C5=O)c3C(C1)C2 (racemic) [(±)-(Id)•HCl] on human serum BChE (Homo sapiens (Human), UniProt P06276)?
**A:** 645

**Q:** What value of IC50 on human serum BChE (Homo sapiens (Human), UniProt P06276) does CC1=CC2Cc3nc4cc(Cl)ccc4c(NCCCCCCCCCCNC(=O)c4cc(O)c5c(c4)C(=O)c4cccc(O)c4C5=O)c3C(C1)C2 (racemic) [(±)-(Ic)•HCl] have?
**A:** 1100

**Q:** Provide the documented IC50 with human serum BChE (Homo sapiens (Human), UniProt P06276) as the system for CC1=CC2Cc3nc4cc(Cl)ccc4c(NCc4ccc(CNC(=O)c5cc(O)c6c(c5)C(=O)c5cccc(O)c5C6=O)cc4)c3C(C1)C2 (racemic) [(±)-(Ie)•HCl]
**A:** 510

***
**Q:** Record CC1=CC2Cc3nc4cc(Cl)ccc4c(NCCCCCCCCNC(=O)c4cc(O)c5c(c4)C(=O)c4cccc(O)c4C5=O)c3C(C1)C2 (racemic) [(±)-(Ia)•HCl] : what is its IC50 with human serum BChE (Homo sapiens (Human), UniProt P06276)?
**A:** 350
